# System: HB3
# test name: qHTS profiling for inhibitors of Plasmodium falciparum proliferation (AID 504749); also: nearly all actives have a fitted effect of over 60% in size
# measurement context: P. falciparum in erythrocytes, SYBR Green DNA, 72 h; series mostly up to 28.7 µM
Results filed as inconclusive are left out. The source made the active and inactive calls. Calls follow the shape of the dose curve; as a rule, active = well fitted inhibition curve with a large enough effect; inconclusive = small, poorly fitted or top-dose-only effect; inactive = flat fitted curve, though single readings scatter.
Bench note: report the call from active, inactive

Consider the worked cases shown below.
{"columns": ["compound string", "qualitative label"],
 "data": [
  ["O=c1oc2c(O)c(O)cc3c(=O)oc4c(O)c(O)cc1c4c23", "active"],
  ["CCCCCCNC(=O)n1cc(F)c(=O)[nH]c1=O", "active"],
  ["COc1ccc2cc3[n+](cc2c1OC)CCc1cc2c(cc1-3)OCO2", "active"]
]}

Would you mind telling me which call this test gave S=P(N1CC1)(N1CC1)N1CC1 ?
inactive

Subsequent entry: Cc1cccc(Nc2ccncc2S(=O)(=O)NC(=O)NC(C)C)c1
inactive

// same read-out, input: CCOC(=O)c1ccc(C#Cc2ccc3c(c2)C(C)(C)CCS3)nc1
inactive

Queued: COc1cnc(NS(=O)(=O)c2ccc(N)cc2)nc1
inactive

Can you check O=NN(CCCl)C(=O)NC1CCCCC1 next?
inactive

OC(Cn1cncn1)(Cn1cncn1)c1ccc(F)cc1F ?
inactive

Also check N=C(N)c1ccc(OCCCCCOc2ccc(C(=N)N)cc2)cc1
active

Input O=P(O)(O)C(O)(Cc1cccnc1)P(=O)(O)O
inactive

And Cc1ncc([N+](=O)[O-])n1CCO ?
inactive

====

# test name: Primary qHTS for inhibitors of nuclear receptor binding SET domain protein 2 (NSD2) in an isogenic RCH-ACV NSD2 p.E1099K mutant (9B) (AID 1645876); also: nearly all actives have a fitted effect of over 70% in size; also: potency is read from the fitted curve at half-maximal effect
# measurement context: RCH-ACV (leukaemia line) NSD2 E1099K (9B) viability, CellTiter-Glo, 72 h; series mostly up to 44.9 µM
Inconclusive results are not listed. Activity calls are given as the source filed them. Calls follow the shape of the dose curve; as a rule, active = well fitted inhibition curve with a large enough effect; inconclusive = small, poorly fitted or top-dose-only effect; inactive = flat fitted curve, though single readings scatter.
measurement type: Potency

Field: example entries. Status: answers known.
{"columns": ["compound", "Potency"],
 "data": [
  ["CC(C)OC(=O)C(C(=O)OC(C)C)=C1SC=CS1", "inactive"],
  ["OCc1ccc(-c2nn(Cc3ccccc3)c3ccccc23)o1", "3.72 µM (active)"],
  ["CN(C)CCc1c[nH]c2ccc(CS(=O)(=O)N3CCCC3)cc12", "inactive"],
  ["CCCCS(=N)(=O)CCC(N)C(=O)O (stereo unspecified)", "inactive"],
  ["CCn1cc(C(=O)O)c(=O)c2cc(F)c(N3CCNCC3)nc21", "inactive"]
]}

Attention now turns to another entry.
Any idea what Potency was measured for NC(=O)c1cccc(N)c1 ?
inactive

====

# tested system: Endonuclease 4 (Escherichia coli (strain K12)) (UniProt P0A6C1)
# test name: Counterscreen for APE1 Inhibitors: qHTS Validation Assay for Inhibitors of Endonuclease IV (AID 1708); also: % is scaled to controls: 0 for no effect and ±100 for the full control effect
# measurement context: E. coli endonuclease IV, DNA cleavage fluorescence; series mostly up to 57.1 µM
Records with an inconclusive call do not appear. Activity calls are given as the source filed them. Calls follow the shape of the dose curve; as a rule, active = well fitted inhibition curve with a large enough effect; inconclusive = small, poorly fitted or top-dose-only effect; inactive = no such curve, though single readings can be large or run the other way.
measurement type: outcome

{"columns": ["molecule", "tested system", "experimental result"],
 "data": [
  ["CC1=C(C(=O)O)N2C(=O)[C@@H](NC(=O)C(N)c3ccccc3)[C@H]2SC1 (stereo not given in full)", "Endonuclease 4 (Escherichia coli (strain K12)) (UniProt P0A6C1)", "inactive"],
  ["CCN1CCCC1CNC(=O)c1cc(S(N)(=O)=O)ccc1OC (stereo not given)", "Endonuclease 4 (Escherichia coli (strain K12)) (UniProt P0A6C1)", "inactive"],
  ["COc1cc2ncnc(Nc3cccc(Cl)c3)c2cc1OC", "Endonuclease 4 (Escherichia coli (strain K12)) (UniProt P0A6C1)", "inactive"],
  ["CCCCS(=N)(=O)CCC(N)C(=O)O (stereo not given)", "Endonuclease 4 (Escherichia coli (strain K12)) (UniProt P0A6C1)", "inactive"]
]}

Query (molecule): CC(C)NCC(O)c1ccc(NS(C)(=O)=O)cc1 (stereo not given) ; field requested: outcome
inactive

====

# test name: Drug repurposing screens with cells derived from glioblastoma tumor samples (AID 1345199); also: % is scaled to controls: 0 for no effect and ±100 for the full control effect; nearly all actives have a fitted effect of over 40% in size
# measurement context: GBM patient neurospheres viability, ATP luminescence, 48 h; at 45.9 µM (top of the series); tumour line B
Results filed as inconclusive are left out.
measurement type: activity, negative = cell killing (%)
Write down the numeric answer in % and omit the unit.

{"columns": ["compound string", "unit text", "activity, negative = cell killing"],
 "data": [
  ["Clc1ccccc1CN1CCc2sccc2C1", "%", -14.5],
  ["C[C@]12C=CC(=O)C=C1CC[C@@H]1[C@@H]2C(=O)C[C@@]2(C)[C@H]1CC[C@]2(O)C(=O)CO", "%", -6.23]
]}

Fill in the blank: the reported activity, negative = cell killing of C[C@@H](CN1CC(=O)NC(=O)C1)N1CC(=O)NC(=O)C1 is ____.
-2.51

Further, for CC(=O)[C@H]1CC[C@H]2[C@@H]3CC=C4C[C@@H](O)CC[C@]4(C)[C@H]3CC[C@]12C ?
-3.14

Try CN1CCN(c2c(F)cc3c(=O)c(C(=O)O)cn(CCF)c3c2F)CC1 next.
-2.67

====

# test name: qHTS to identify inhibitors of the type 1 interferon - major histocompatibility complex class I in skeletal muscle: primary screen against the NCATS Mechanism Interrogation Plate v5.0 (MIPE) Libary (AID 1347411); also: nearly all actives have a fitted effect of over 65% in size
# measurement context: iHSKM cells + IFN-b, HiBiT-tagged MHC-I luminescence, 24 h; series mostly up to 45.8 µM
Records with an inconclusive call do not appear. The source made the active and inactive calls. Calls come from the whole dose curve; as a rule, active = well fitted inhibition curve with a large enough effect; inconclusive = small, poorly fitted or top-dose-only effect; inactive = no such curve, though single readings can be large or run the other way.
Parameter call: string, one of yes = active, no = inactive

{"columns": ["compound", "qualitative label"],
 "data": [
  ["Nc1nc(F)nc2c1ncn2[C@@H]1O[C@H](CO)[C@@H](O)[C@@H]1O", "no"],
  ["NC(=O)c1cccc(N)c1", "no"],
  ["O=NN(CCCl)C(=O)NC1CCCCC1", "no"],
  ["CC(C)(Sc1cc(C(C)(C)C)c(O)c(C(C)(C)C)c1)Sc1cc(C(C)(C)C)c(O)c(C(C)(C)C)c1", "no"],
  ["CCOc1cc(N)c(Cl)cc1C(=O)NCC1CN(Cc2ccc(F)cc2)CCO1 (configuration not stated)", "no"]
]}

Could you kindly confirm the outcome this assay logged for CN(CCOc1ccc(CC2SC(=O)NC2=O)cc1)c1ccccn1 (configuration not stated) ?
no

Note, next up: Oc1c(Cl)cc(Cl)c2cccnc12
yes

Then O=S(=O)(O)CCS ?
no

====

# test name: qHTS of pediatric cancer cell lines to identify multiple opportunities for drug repurposing: Primary screen for U-2 OS cells (AID 1347096);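 also: plate controls were DMSO wells for no effect and bortezomib positive control wells for full effect; nearly all actives have a fitted effect of over 50% in size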
# measurement context: U-2 OS viability, CellTiter-Glo luminescence, 48 h; series mostly up to 46 µM
# Procedure: Drug repurposing or repositioning has been offered as a strategy for drug development in oncology programs. […] [1] Shen, M et al. Quantitative high-throughput phenotypic screening of pediatric cancer cell lines identifies multiple opportunities for drug repurposing. […] Cells were assayed in growth media at a density of 500-1,000 cells/well. […] After a 15 min incubation at room temperature, samples were analyzed for luminescence intensity using a ViewLux High-throughput CCD imager equipped with clear filters.
Results filed as inconclusive are left out. Active and inactive are the calls of the source. Calls follow the shape of the dose curve; as a rule, active = well fitted cell-killing curve with a large enough effect; inconclusive = small, poorly fitted or top-dose-only effect; inactive = flat fitted curve, though single readings scatter.
Lab note: assign the record to one of active, inactive

Examples from the recorded data:
{"columns": ["compound", "qualitative label"],
 "data": [
  ["COc1ccc(-c2ccc3cc(C(=O)O)ccc3c2)cc1C12CC3CC(CC(C3)C1)C2", "inactive"],
  ["CC(=O)CC(c1ccccc1)c1c(O)c2ccccc2oc1=O (stereo not drawn)", "inactive"],
  ["CCOc1cc(N)c(Cl)cc1C(=O)NCC1CN(Cc2ccc(F)cc2)CCO1 (stereo not drawn)", "inactive"],
  ["CC(=O)[C@H]1CC[C@H]2[C@@H]3CC=C4C[C@@H](O)CC[C@]4(C)[C@H]3CC[C@]12C", "inactive"],
  ["CC(C)(C#N)c1cc(Cn2cncn2)cc(C(C)(C)C#N)c1", "inactive"]
]}

// return assay outcome for COc1ccccc1OCC(O)COC(N)=O (stereo not drawn)
inactive

Now the same for Cn1nnc2c(C(N)=O)ncn2c1=O
inactive

Check CCCOc1ccc(C(=O)OCCN(CC)CC)cc1N too.
inactive

// same read-out, input: CC[C@H](C)C(=O)O[C@H]1C[C@@H](C)C=C2C=C[C@H](C)[C@H](CC[C@@H]3C[C@@H](O)CC(=O)O3)[C@H]21
inactive

Next up: NC(N)=NC(N)=NCCc1ccccc1
inactive

====

# test name: qHTS Screen of the MIPE 4.0 Collection Against Ewings Sarcoma (EW8) (AID 1259255); also: nearly all actives have a fitted effect of over 35% in size;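 as to viability: 100% = DMSO-treated cells and 0% = medium-only wells without cells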
# measurement context: EW8 Ewing sarcoma viability, CellTiter-Glo, 48 h; series mostly up to 45.8 µM
# Experimental: There is a large unmet medical need for treatments for Ewing sarcoma, a pediatric sarcoma. […] Using the NCATS developed oncology compound library called the Mechanism of Interrogation Plate (MIPE), four Ewing sarcoma cell lines were evaluated (TC32, TC71, RDES, EW8). Compounds, in a 12-point titration series, were incubated with cells for 48 hours and the read out was cell viability (CellTiter-Glo from Promega). […]
Records with an inconclusive call do not appear. Calls of active or inactive are those of the source. Calls come from the whole dose curve; as a rule, active = well fitted inhibition curve with a large enough effect; inconclusive = small, poorly fitted or top-dose-only effect; inactive = no such curve, though single readings can be large or run the other way.
Please state which outcome applies, choosing from class 1 = active, class 0 = inactive

# outcome recorded in this test, key = CNS(=O)(=O)Cc1ccc2[nH]cc(CCN(C)C)c2c1
class 0

Param item: Oc1c(Cl)cc(Cl)c2cccnc12
class 1

Can you check Cc1oc(=O)oc1CN1CCN(c2cc3c(cc2F)c(=O)c(C(=O)O)c2n3C(C)S2)CC1 (stereo not given) next?
class 0

Now consider CO[C@@H]1[C@@H](OC(N)=O)[C@@H](O)[C@H](Oc2ccc3c(O)c(NC(=O)c4ccc(O)c(CC=C(C)C)c4)c(=O)oc3c2C)OC1(C)C .
class 1

// same read-out, input: COc1cc2nc(N3CCCN(C)CC3)nc(NC3CCN(Cc4ccccc4)CC3)c2cc1OC
class 1

From: PubChem BioAssay (NCATS)
